TARGET_ENTITY: Prostaglandin E synthase (Homo sapiens)
Sequence (O14684 whole entry): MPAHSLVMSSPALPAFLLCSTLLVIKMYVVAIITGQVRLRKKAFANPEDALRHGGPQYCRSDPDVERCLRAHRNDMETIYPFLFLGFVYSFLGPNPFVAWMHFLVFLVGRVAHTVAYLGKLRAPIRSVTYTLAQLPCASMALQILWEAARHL
PROTOCOL_DESCRIPTION: Inhibition Assay: mPGES-1 microsome fractions were prepared from CHO-K1 cells transiently transfected with plasmid encoding the human mPGES-1cDNA. Microsomes were diluted with potassium phosphate buffer containing reduced glutathione (pH7.4), and DMSO containing test compound or DMSO alone was added (such that DMSO final concentration would be 1% in each) and incubated at 4° C. for 20 minutes. Then, the enzymatic reactions were initiated by the addition of PGH2 substrate (final concentration 1 μM) and incubated at 4° C. for 60 seconds. The reaction was terminated by the addition of a citrate solution (final citrate concentration 50 mM) containing ferric chloride (final concentration 1 mg/mL). PGE2 production in the enzyme reaction aliquot was measured using HTRF kit (Cisbio International, catalogue #62P2APEC).
ENDPOINT_LABEL: IC50 (nM)
Value expressed in nM; do not type the unit.

The observed IC50 for O=C(Nc1cc(C(=O)NCc2ccccc2C(F)(F)F)c2nc[nH]c2c1)c1ccccc1C(F)(F)F when tested with Prostaglandin E synthase (Homo sapiens) stands at 12.7

meta.source: ChEMBL document CHEMBL3886430
